experiment.summary: Neurotoxicity in ip dosed Mus musculus (mouse) after 4 hr by rotorod test
Assay type: toxicity, organism-based
recorded.conditions: in vivo
readout.kind: MTD at 4 h (mg/kg)

> print(dat)
                            sample.smiles  numeric.value
1   Cc1ccc(NC(=O)Nn2c(C)nc3ccccc3c2=O)cc1            300
2      Cc1nc2ccccc2c(=O)n1NC(=O)Nc1ccccc1            300
3     Cc1ccccc1NC(=O)Nn1c(C)nc2ccccc2c1=O            300
4  CCc1ccc(NC(=O)Nn2c(C)nc3ccccc3c2=O)cc1            300
5   Cc1nc2ccccc2c(=O)n1NC(=O)Nc1ccc(I)cc1            300

---

experiment.summary: Neurotoxicity in ip dosed Mus musculus (mouse) after 0.5 hr by rotorod test
Format: toxicity, organism-based
recorded.conditions: in vivo
readout.kind: MTD at 0.5 h

> print(dat)
                            sample.smiles     result
1   Cc1cccc(NC(=O)Nn2c(C)nc3ccccc3c2=O)c1  300 mg/kg
2  COc1ccc(NC(=O)Nn2c(C)nc3ccccc3c2=O)cc1  300 mg/kg
3   Cc1nc2ccccc2c(=O)n1NC(=O)Nc1ccc(I)cc1  300 mg/kg

---

Test system: Mus musculus
experiment.summary: Neurotoxicity in ip dosed Mus musculus (mouse) after 0.5 hr by rotorod test
Assay type: toxicity, organism-based
recorded.conditions: in vivo, 0.5 h
readout.kind: MTC (mg/kg)

> print(dat)
                                   compound  readout.kind  reading.unit  numeric.value
1  NC(=O)N1c2ccccc2C=Cc2ccccc21 [CARBAMAZEPINE]           MTC         mg/kg            100
2            CCC1(c2ccccc2)C(=O)NC(=O)NC1=O           MTC         mg/kg            100
3   CCOc1ccc(NC(=O)Nn2c(C)nc3ccccc3c2=O)cc1           MTC         mg/kg            300
4    Cc1nc2ccccc2c(=O)n1NC(=O)Nc1ccc(Br)cc1           MTC         mg/kg            300
5        Cc1nc2ccccc2c(=O)n1NC(=O)Nc1ccccc1           MTC         mg/kg            300
6    Cc1nc2ccccc2c(=O)n1NC(=O)Nc1ccc(Cl)cc1           MTC         mg/kg            300
7         O=C1NC(=O)C(c2ccccc2)(c2ccccc2)N1           MTC         mg/kg            100

---

Tested on: Rattus norvegicus
experiment.summary: CNS depressant activity in Rattus norvegicus Wistar (rat) assessed as immobility time at 100 mg/kg, ip measured after 60 min by forced swim test (reference value: 45.6 +/- 19.45 to 180.97 +/- 14.15 sec)
Assay type: functional
recorded.conditions: route intraperitoneal
Overview of recorded Time for various compounds
readout.kind: Time (s)

> print(dat)
                                    compound  reading.unit  numeric.value
 1       Cc1ccccc1NC(=O)Nn1c(C)nc2ccccc2c1=O             s         226.29
 2     Cc1ccc(NC(=O)Nn2c(C)nc3ccccc3c2=O)cc1             s         210.29
 3  Cc1nc2ccccc2c(=O)n1NC(=O)Nc1ccc([N+](=O)[O-])cc1             s         190.29
 4     Cc1cccc(NC(=O)Nn2c(C)nc3ccccc3c2=O)c1             s         218.29
 5    COc1ccc(NC(=O)Nn2c(C)nc3ccccc3c2=O)cc1             s         202.29
 6  NC(=O)N1c2ccccc2C=Cc2ccccc21 [CARBAMAZEPINE]             s          240.3
 7    Cc1nc2ccccc2c(=O)n1NC(=O)Nc1ccc(Cl)cc1             s          204.7
 8    Cc1nc2ccccc2c(=O)n1NC(=O)Nc1ccc(Br)cc1             s          70.63
 9   CCOc1ccc(NC(=O)Nn2c(C)nc3ccccc3c2=O)cc1             s         198.29
10        Cc1nc2ccccc2c(=O)n1NC(=O)Nc1ccccc1             s         130.56
11     Cc1nc2ccccc2c(=O)n1NC(=O)Nc1ccc(F)cc1             s         188.16
12    CCc1ccc(NC(=O)Nn2c(C)nc3ccccc3c2=O)cc1             s         208.29
13     Cc1nc2ccccc2c(=O)n1NC(=O)Nc1ccc(I)cc1             s         194.05

---

System: Mus musculus
experiment.summary: Neurotoxicity in ip dosed Mus musculus (mouse) after 4 hr by rotorod test
Assay type: toxicity, organism-based
recorded.conditions: in vivo, 4 h
readout.kind: MTC (mg/kg)

> print(dat)
                                   compound  numeric.value
1    Cc1nc2ccccc2c(=O)n1NC(=O)Nc1ccc(Cl)cc1            300
2   CCOc1ccc(NC(=O)Nn2c(C)nc3ccccc3c2=O)cc1            300
3            CCC1(c2ccccc2)C(=O)NC(=O)NC1=O            300
4         O=C1NC(=O)C(c2ccccc2)(c2ccccc2)N1            100
5  NC(=O)N1c2ccccc2C=Cc2ccccc21 [CARBAMAZEPINE]            300
